# Tested on: Transthyretin (Homo sapiens), P02766 [V50M]
# method-summary: Binding affinity to TTR V30M mutant (unknown origin) expressed in Escherichia coli assessed as change in entropy by ITC assay
TdeltaS overview
Hi! Could you send only the number? It should be in kcal/mol, unit omitted.

These recorded examples may help you get a feel for the data.
>>> observed_value("O=C1CC(c2cc(Cl)c(O)c(Cl)c2)Oc2cc(O)cc(O)c21 (stereo unspecified)")
6
>>> observed_value("O=C1CC(c2cc(Cl)c(O)c(Cl)c2)Oc2cc(O)ccc21 (stereo unspecified)")
2.78
>>> observed_value("O=C1CC(c2cc(Cl)c(O)c(Cl)c2)Oc2cccc(O)c21 (stereo unspecified)")
-2.28
>>> observed_value("O=C1CC(c2ccc(O)c(Cl)c2)Oc2cc(O)cc(O)c21 (stereo unspecified)")
4.47
>>> observed_value("O=C1CC(c2cc(Cl)cc(Cl)c2)Oc2cc(O)cc(O)c21 (stereo unspecified)")
-6.17

Would you kindly look at the next entry?
TdeltaS for "O=C1C[C@@H](c2ccc(O)cc2)Oc2cc(O)cc(O)c21" is 1.32
